# experiment: Inhibition of Escherichia coli RNA polymerase
For each record, check the reported IC50: if it is below 20 µM write true (1), else write false (0).

- smiles representation: "CCN(Cc1ccccc1)C(=O)Nc1c(-c2ccc(Cl)cc2)csc1C(=O)O"
  cat: "false (0)"
- smiles representation: "CCN(Cc1ccccc1)C(=O)Nc1scc(-c2ccc(Cl)cc2)c1C(=O)O"
  cat: "false (0)"
- smiles representation: "O=C(NCc1ccccc1)Nc1sc(-c2ccc(Cl)c(Cl)c2)cc1C(=O)O"
  cat: "false (0)"
- smiles representation: "CN(C)S(=O)(=O)Nc1ccc(NC(=O)Nc2sc(-c3ccc(Cl)c(Cl)c3)cc2C(=O)O)cc1"
  cat: "false (0)"
- smiles representation: "O=C(O)c1cc(-c2ccc(Cl)c(Cl)c2)sc1NC(=O)N(Cc1ccccc1)Cc1ccccc1"
  cat: "true (1)"
- smiles representation: "Nc1ccc(NC(=O)Nc2sc(-c3ccc(Cl)c(Cl)c3)cc2C(=O)O)cc1"
  cat: "false (0)"
- smiles representation: "COC(=O)Nc1ccc(NC(=O)Nc2sc(-c3ccc(Cl)c(Cl)c3)cc2C(=O)O)cc1"
  cat: "true (1)"
- smiles representation: "O=C(Nc1ccc(NS(=O)(=O)c2ccccc2)cc1)Nc1sc(-c2ccc(Cl)c(Cl)c2)cc1C(=O)O"
  cat: "true (1)"

----------
# experiment: Cytotoxicity against HEK293 cells
# Assay type: cell-based
# condition parameters: human, read-out: LD50 (the source's name)
# CC50 annotations

- smiles representation: "O=C(Nc1ccc(F)cc1)Nc1sc(-c2ccc(Cl)c(Cl)c2)cc1C(=O)O"
  measure unit: "µM"
  prefix operator: "="
  CC50: 68
- smiles representation: "O=C(Nc1ccc(NS(=O)(=O)c2ccccc2)cc1)Nc1sc(-c2ccc(Cl)c(Cl)c2)cc1C(=O)O"
  measure unit: "µM"
  prefix operator: "="
  CC50: 94
- smiles representation: "CS(=O)(=O)Nc1ccc(NC(=O)Nc2sc(-c3ccc(Cl)c(Cl)c3)cc2C(=O)O)cc1"
  measure unit: "µM"
  prefix operator: ">"
  CC50: 100
